Target: T1, Escherichia coli RelE toxin, fluorescently labeled (RED-NHS) (Escherichia coli, UniProt P0C077)
T1 sequence: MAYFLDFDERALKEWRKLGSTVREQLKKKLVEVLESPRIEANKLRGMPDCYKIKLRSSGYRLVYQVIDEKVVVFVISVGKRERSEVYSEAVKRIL
Assay: other fluorescence titration
What EC50 was measured for each of the following?
Give bare numbers, in nM.

>>> value_measured("Escherichia coli RelB antitoxin truncated at Lys70 (His6-RelBΔ70–79) (domain or fragment) MGSINLRIDDELKARSYAALEKMGVTPSEALRLMLEYIADNERLPFKQTLLSDEDAELVEIVKERLRNP")
880

Your task in this section: give EC50 for each listed record.
1. Escherichia coli RelB antitoxin with a stop codon at Leu66 (His6-RelBΔ66–79) (domain or fragment) MGSINLRIDDELKARSYAALEKMGVTPSEALRLMLEYIADNERLPFKQTLLSDEDAELVEIVKER
2. Escherichia coli RelB antitoxin, wildtype (His6-RelB) (natural protein) MGSINLRIDDELKARSYAALEKMGVTPSEALRLMLEYIADNERLPFKQTLLSDEDAELVEIVKERLRNPKPVRVTLDEL

24000
2.6
